- Tested on: MV4-11
- method-description: Antiproliferative activity against human MV4-11 cells assessed as growth inhibition incubated for 5 days by CellTiter-Glo reagent based assay
- Assay type: functional
- particulars: MV4-11, 120 h, time 5 day
Lab note - cut at 0.08 µM for GI50: yes (1) if strictly below, no (0) if not.

COc1cc(CNC(=O)c2cc(Cn3ccn(C)c3=N)cc(-c3ccc(F)cc3C)c2)cc(OC)c1 | no (0)
CCc1cc(OC)c2nccc(N3CCOc4c(cc(Cn5ccnc5)cc4-c4cn(C)nc4C(F)(F)F)C3=O)c2c1 | no (0)
CCn1cc(-c2cc(Cn3ccnc3)cc3c2OCCN([C@H]2CCOc4ccc(OC)cc42)C3=O)c(C(F)(F)F)n1 | yes (1)
CCc1cc(C(=O)NC)c2nccc(N3CCc4c(cc(Cn5ccnc5)cc4-c4cn(C)nc4C(F)(F)F)C3=O)c2c1 | yes (1)
COc1cc(CN2COc3c(cc(Cn4ccn(C)c4=N)cc3-c3ccc(F)cc3C)C2=O)cc(OC)c1 | no (0)

// query Is 0.08 µM strictly greater than the compound's reported GI50? compound: CCc1cc(OC)c2nccc(N3CCc4c(cc(Cn5ccnc5)cc4-c4cn(C)nc4C(F)(F)F)C3=O)c2c1
// result yes (1)

// query Is 0.08 µM strictly greater than the compound's reported GI50? compound: COc1cc(CN2CCNc3c(cc(Cn4ccn(C)c4=N)cc3-c3ccc(F)cc3C)C2=O)cc(OC)c1
// result yes (1)

// query Is 0.08 µM strictly greater than the compound's reported GI50? compound: COc1cc(CN2CCCc3c(cc(Cn4ccn(C)c4=N)cc3-c3ccc(F)cc3C)C2=O)cc(OC)c1
// result no (0)

====

- Test system: K562
- method-description: Antiproliferative activity against human K562 cells assessed as growth inhibition incubated for 5 days by CellTiter-Glo reagent based assay
- Format: functional
- particulars: K562, 120 h, time 5 day
This listing pairs compounds with measured GI50.
# number only, unit µM dropped from output

COc1cc(CN2CCc3c(cc(Cn4ccn(C)c4=N)cc3-c3ccc(F)cc3C)C2=O)cc(OC)c1 | 8
CCc1cc(OC)c2nccc(N3CCc4c(cc(Cn5ccnc5)cc4-c4cn(C)nc4C(F)(F)F)C3=O)c2c1 | 2.2

Input CCn1cc(-c2cc(Cn3ccnc3)cc3c2OCCN([C@H]2CCOc4ccc(OC)cc42)C3=O)c(C(F)(F)F)n1 . Output GI50: 6.5

Input CCn1cc(-c2cc(Cn3ccnc3)cc3c2NCN([C@H](c2cc(OC)ccn2)C2CC2)C3=O)c(C(F)(F)F)n1 . Output GI50: 5.8

Input CCc1cc(OC)c2nccc(N3COc4c(cc(Cn5ccnc5)cc4-c4cn(C)nc4C(F)(F)F)C3=O)c2c1 . Output GI50: 8.6

Input CCn1cc(-c2cc(Cn3ccnc3C)cc3c2OCCN([C@H]2CCOc4ccc(OC)cc42)C3=O)c(C(F)(F)F)n1 . Output GI50: 4.5

Input COc1cc(CN2CCOc3c(cc(Cn4ccn(C)c4=N)cc3-c3ccc(F)cc3C)C2=O)cc(OC)c1 . Output GI50: 11

Input CCn1cc(-c2cc(Cn3ccnc3)cc3c2OCCN([C@H](c2cc(OC)ccn2)C2CC2)C3=O)c(C(F)(F)F)n1 . Output GI50: 15

Input CCc1cc(OC)c2nccc(N3CCOc4c(cc(Cn5ccnc5)cc4-c4cn(C)nc4C(F)(F)F)C3=O)c2c1 . Output GI50: 21
